experiment: clinical; format: in vivo, human (critically ill ICU patients); conditions: human, in vivo; mean of 6 out of 8 patients; plasma after end of CMS treatment; first-order kinetic; read-out: elimination half-time of Colistin, mean (converted)
Bridge positions count the residues as written; N and C are the ends. Square brackets hold non-standard residues; d marks the D form. Peptide text beside a SMILES is read from it. * marks the point of attachment. X1 = CC[C@H](C)CCCCC(=O)*; Dab = NCC[C@H](N)C(=O)O
endpoint.name: half-life (h)

compound	endpoint.name	unit.label	observed.measurement
CC[C@H](C)CCCCC(=O)N[C@@H](CCN)C(=O)N[C@H](C(=O)N[C@@H](CCN)C(=O)N[C@H]1CCNC(=O)[C@H]([C@@H](C)O)NC(=O)[C@H](CCN)NC(=O)[C@H](CCN)NC(=O)[C@H](CC(C)C)NC(=O)[C@@H](CC(C)C)NC(=O)[C@H](CCN)NC1=O)[C@@H](C)O [Colistin] (X1-[Dab]T[Dab][Dab][Dab][dL]L[Dab][Dab]T; lactam 4-C)	half-life	h	22

The reported measurements were obtained from paper PMC7143967.
